target: NLRP3 (Homo sapiens); construct: Seed THP-1 cells (5.56*10^5 cells/mL) containing 1.0 ug/mL LPS; endogenous in cells; assay: THP-1 cell assay (LPS priming, nigericin), IL1β release by HTRF; called pyroptosis assay, THP IC50; conditions: NLRP3 inhibitory activity; THP-1 cells, 1.0 ug/mL LPS, compound 3 hrs, nigericin 5 uM 1 hr, IL1β in supernatant
Catalogue of IC50 readings, one per entry.

- smiles str: "Cc1cc2c(c(NC(=O)NS(=O)(=O)c3cc(CC4CC4)n(C)n3)c1-c1ccn3nccc3c1)CCC2"
  IC50: "≤ 30 nM"
- smiles str: "CN1CCC(n2ccc3c(-c4ccc5c(c4NC(=O)NS(=O)(=O)c4cc(C(C)(C)O)cs4)CCC5)ccnc32)CC1"
  IC50: "300 to 1000 nM"
- smiles str: "Cc1cc2c(c(NC(=O)NS(=O)(=O)c3cnn(CC4CC4)c3)c1-c1ccn3nccc3c1)CCC2"
  IC50: "≤ 30 nM"

Endpoint output: IC50 of `Cc1cc2c(c(NC(=O)NS(=O)(=O)c3ccn(C[C@@H]4CCO4)n3)c1-c1ccc3ccnn3c1)CCC2` . Value?
30 to 300 nM

And for `Cc1cc2c(c(NC(=O)NS(=O)(=O)c3cnn(CC4CC4)c3)c1-c1ccn3ccnc3c1)CCC2` ?
≤ 30 nM

And for `CC(C)(O)c1csc(S(=O)(=O)NC(=O)Nc2c(-c3ccc4nccn4c3)ccc3c2CCC3)c1` ?
≤ 30 nM

And for `N#Cc1cc2c(c(NC(=O)NS(=O)(=O)c3cnn(CC4CC4)c3)c1-c1ccn3cncc3c1)CCC2` ?
≤ 30 nM

---

Catalogue of IC50 readings, one per entry.
molecular target: NLRP3 (Homo sapiens); construct: Seed THP-1 cells (5.56*10^5 cells/mL) containing 1.0 ug/mL LPS; endogenous in cells; experiment: THP-1 cell assay (LPS priming, nigericin), IL1β release by HTRF; called pyroptosis assay, THP IC50; conditions: NLRP3 inhibitory activity; THP-1 cells, 1.0 ug/mL LPS, compound 3 hrs, nigericin 5 uM 1 hr, IL1β in supernatant

Recorded IC50 for Cc1cc2c(c(NC(=O)NS(=O)(=O)c3ccn(C4CC(O)C4)n3)c1-c1ccn3nccc3c1)CCC2 (stereo not shown) with NLRP3 (Homo sapiens), please?
≤ 30 nM

And for `CC(C)(O)c1csc(S(=O)(=O)NC(=O)Nc2c(-c3ccnc4c3ccn4C3CC3)ccc3c2CCC3)c1` ?
30 to 300 nM

And for `CC(C)(O)c1csc(S(=O)(=O)NC(=O)Nc2c(-c3cnc4[nH]ccc4c3)ccc3c2CCC3)c1` ?
30 to 300 nM

And for `Cc1cc2c(c(NC(=O)NS(=O)(=O)c3ccn(C[C@@H](C)O)n3)c1-c1ccn3nccc3c1)CCC2` ?
≤ 30 nM

---

biological target: NLRP3 (Homo sapiens, UniProt Q96P20); construct: Seed THP-1 cells (5.56*10^5 cells/mL) containing 1.0 ug/mL LPS; endogenous in cells; test: THP-1 cell assay (LPS priming, nigericin), IL1β release by HTRF; called pyroptosis assay, THP IC50; conditions: NLRP3 inhibitory activity; THP-1 cells, 1.0 ug/mL LPS, compound 3 hrs, nigericin 5 uM 1 hr, IL1β in supernatant
Sequence (Q96P20 whole entry): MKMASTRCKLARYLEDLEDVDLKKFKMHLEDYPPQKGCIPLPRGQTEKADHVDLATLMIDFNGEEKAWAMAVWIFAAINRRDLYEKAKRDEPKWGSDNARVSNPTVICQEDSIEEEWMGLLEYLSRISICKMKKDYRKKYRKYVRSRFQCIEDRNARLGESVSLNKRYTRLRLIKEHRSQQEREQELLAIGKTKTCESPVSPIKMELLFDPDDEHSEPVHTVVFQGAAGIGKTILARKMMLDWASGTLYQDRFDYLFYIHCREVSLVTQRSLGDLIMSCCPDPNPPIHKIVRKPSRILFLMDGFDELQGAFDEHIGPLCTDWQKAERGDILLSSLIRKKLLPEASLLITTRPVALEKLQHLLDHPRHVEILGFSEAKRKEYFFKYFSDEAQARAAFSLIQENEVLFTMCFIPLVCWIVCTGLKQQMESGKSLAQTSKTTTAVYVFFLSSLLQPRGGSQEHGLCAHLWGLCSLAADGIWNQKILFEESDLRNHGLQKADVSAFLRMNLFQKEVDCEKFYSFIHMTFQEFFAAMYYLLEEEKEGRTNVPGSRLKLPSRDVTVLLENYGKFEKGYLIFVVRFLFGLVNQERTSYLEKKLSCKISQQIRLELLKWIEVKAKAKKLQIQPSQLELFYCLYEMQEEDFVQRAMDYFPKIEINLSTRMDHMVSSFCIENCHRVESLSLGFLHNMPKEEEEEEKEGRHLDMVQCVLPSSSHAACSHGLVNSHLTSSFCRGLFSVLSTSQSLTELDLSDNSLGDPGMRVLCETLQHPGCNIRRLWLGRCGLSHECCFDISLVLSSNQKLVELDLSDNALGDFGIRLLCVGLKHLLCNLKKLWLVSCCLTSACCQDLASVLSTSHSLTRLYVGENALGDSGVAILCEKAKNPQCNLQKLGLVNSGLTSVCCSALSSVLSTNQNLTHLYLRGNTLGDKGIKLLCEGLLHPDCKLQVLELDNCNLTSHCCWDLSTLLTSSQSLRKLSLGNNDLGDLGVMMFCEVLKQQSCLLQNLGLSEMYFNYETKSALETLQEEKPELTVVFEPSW
Catalogue of IC50 readings, one per entry.

- smiles str: "Cc1cc2c(c(NC(=O)NS(=O)(=O)c3cncc(C4CCC4)c3)c1-c1ccn3nccc3c1)CCC2"
  IC50: "≤ 30 nM"

Endpoint output: IC50 of `O=C(Nc1c2c(cc(F)c1-c1ccn3nccc3c1)CCC2)NS(=O)(=O)c1ccn(CC2CC2)n1` . Value?
≤ 30 nM

And for `CC(C)(O)c1csc(S(=O)(=O)NC(=O)Nc2c(-c3ccn4cnnc4c3)ccc3c2CCC3)c1` ?
≤ 30 nM

And for `Cc1c(-c2ccc3c(c2NC(=O)NS(=O)(=O)c2cc(C(C)(C)O)cs2)CCC3)ccn2cncc12` ?
30 to 300 nM

# credit: patent US20240400561A1
